Target sequence: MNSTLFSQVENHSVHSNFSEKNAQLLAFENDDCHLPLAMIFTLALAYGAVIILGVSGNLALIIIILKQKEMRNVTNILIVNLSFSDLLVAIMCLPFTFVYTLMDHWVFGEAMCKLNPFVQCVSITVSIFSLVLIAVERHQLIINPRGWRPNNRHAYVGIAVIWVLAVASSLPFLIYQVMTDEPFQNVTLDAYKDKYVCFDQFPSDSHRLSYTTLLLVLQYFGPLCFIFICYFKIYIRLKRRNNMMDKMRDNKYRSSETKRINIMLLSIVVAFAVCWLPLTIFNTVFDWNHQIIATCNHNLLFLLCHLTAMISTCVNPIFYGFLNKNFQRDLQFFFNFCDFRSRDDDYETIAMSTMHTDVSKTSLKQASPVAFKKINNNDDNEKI
ENDPOINT_LABEL: Ki

1) Nc1ccc(S(=O)(=O)c2cc(N)c3ncccc3c2)cc1	> 10 µM
2) Nc1cc(NS(=O)(=O)c2ccccc2)c([N+](=O)[O-])c2cccnc12	> 10 µM
3) CS(=O)(=O)c1cc(N)c2ncccc2c1[N+](=O)[O-]	> 10 µM

----------
# MEASURED_TARGET: UniProt Q9ERC0
# Sequence (Q9ERC0 whole entry): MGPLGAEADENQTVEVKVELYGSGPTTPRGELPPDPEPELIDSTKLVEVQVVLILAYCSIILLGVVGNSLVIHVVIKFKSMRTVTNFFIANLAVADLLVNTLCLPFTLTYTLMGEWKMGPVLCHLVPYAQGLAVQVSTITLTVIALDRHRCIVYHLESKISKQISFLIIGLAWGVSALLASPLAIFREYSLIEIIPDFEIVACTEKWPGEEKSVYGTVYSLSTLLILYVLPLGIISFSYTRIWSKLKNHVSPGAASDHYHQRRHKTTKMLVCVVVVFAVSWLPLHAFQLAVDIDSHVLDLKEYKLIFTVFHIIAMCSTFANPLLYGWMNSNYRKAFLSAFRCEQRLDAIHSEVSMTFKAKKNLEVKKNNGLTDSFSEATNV
ENDPOINT_LABEL: IC50 (µM)

1) CC(C)c1ccccc1S(=O)(=O)c1cc(N)c2ncccc2c1[N+](=O)[O-]	10
